EXPERIMENT DESCRIPTION: chemical genetic growth profiling, strain panel (AID 1159580);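 note: tested at 20 µM; growth read once vehicle control cultures reached saturation at 30 °C; 1 = growth at the plate median or of vehicle wells; lower values mean less growth of the strain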
RUN CONDITIONS: S. cerevisiae deletion strains, growth OD, locus YPL055C, strain LGE1, stronger effect = lower value
The campaign covered roughly 5,500 compounds. About 2,000 (36%) were called active. About 18% were inconclusive and are not listed. This is one part of the list.
Response field label: string, one of condition met (normalized growth strictly below 1) or condition not met.

Would you please look over these solved cases?
[
  {
    "MOLECULE": "O=C1c2ccccc2-c2n[nH]c3cccc1c23",
    "LABEL CLASS": "condition met"
  },
  {
    "MOLECULE": "CC(C)c1ccc2c(c1)CCC1[C@](C)(CN)CCC[C@]21C (stereo not given in full)",
    "LABEL CLASS": "condition met"
  },
  {
    "MOLECULE": "C[n+]1ccccc1/C=N/O",
    "LABEL CLASS": "condition not met"
  },
  {
    "MOLECULE": "OCc1ccccc1-c1ccccc1",
    "LABEL CLASS": "condition met"
  },
  {
    "MOLECULE": "C=C1c2c(Cl)ccc(O)c2C(O)=C2C(=O)[C@]3(O)C(O)=C(C(N)=O)C(=O)[C@@H](N(C)C)[C@@H]3[C@@H](O)[C@H]12",
    "LABEL CLASS": "condition met"
  }
]

Consider the additional molecule presented here.
# input Dear colleague, could you confirm whether normalized growth of "CN(C)[C@@H]1C(=O)C(C(N)=O)=C(O)[C@@]2(O)C(=O)C3=C(O)c4c(O)ccc(Cl)c4[C@@](C)(O)[C@H]3C[C@@H]12" falls below 1? Thanks.
# output condition met

###

Would you kindly list normalized growth for each of these compounds?
EXPERIMENT DESCRIPTION: chemical genetic growth profiling, strain panel (AID 1159580);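 note: tested at 20 µM; growth read once vehicle control cultures reached saturation at 30 °C; 1 = growth at the plate median or of vehicle wells; lower values mean less growth of the strain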
RUN CONDITIONS: S. cerevisiae deletion strains, growth OD, locus YMR125W, strain sto1, stronger effect = lower value
Out of some 5,500 compounds screened, about 2,000 (36%) were called active. Inconclusive results (about 18%) are left out. The list shows a part of the results.
Give bare numbers.

[
  {
    "COMPOUND": "CC1=CC(=O)c2c(O)cccc2C1=O",
    "normalized growth": 0.0728
  },
  {
    "COMPOUND": "O=P1(N(CCCl)CCCl)NCCCO1 (configuration not stated)",
    "normalized growth": 0.981
  },
  {
    "COMPOUND": "OC[C@H]1O[C@@H](O[C@@H]2[C@@H](CO)O[C@](O)(CO)[C@H]2O)[C@H](O)[C@@H](O)[C@H]1O",
    "normalized growth": 0.996
  },
  {
    "COMPOUND": "CCN1CCN(C(=O)NC(C(=O)N[C@@H]2C(=O)N3[C@@H]2SC(C)(C)[C@@H]3C(=O)O)c2ccccc2)C(=O)C1=O (some centres not stated)",
    "normalized growth": 0.988
  },
  {
    "COMPOUND": "Nc1ccc(C(=O)O)cc1",
    "normalized growth": 1.01
  },
  {
    "COMPOUND": "CO[C@H]1CC(O[C@@H]2/C(C)=C/C[C@@H]3C[C@@H](C[C@]4(CC[C@H](C)[C@@H](C5CCCCC5)O4)O3)OC(=O)[C@@H]3C=C(C)/C(=N\\O)[C@H]4OC/C(=C\\C=C\\[C@@H]2C)[C@]43O)O[C@@H](C)C1O (some centres not stated)",
    "normalized growth": 1.03
  }
]

Give one value of normalized growth per listed compound.
1. NCC(N)C(=O)c1ccccc1 (configuration not stated)
2. O=C1NC(O)=NC1(c1ccccc1)c1ccccc1
3. O=C(OCc1ccccc1)c1ccccc1
4. NCC(=O)c1ccccc1
5. CCCOc1ccc2nc(NC(=O)OC)[nH]c2c1
6. O=C(CC(=O)c1ccccc1)c1ccccc1
7. CC1=CCCC2C1(C)CCC(C)C2(C)CC/C(C)=C/C[n+]1cn(C)c2c(N)ncnc21 (configuration not stated)

# output
1. 1.01
2. 1.02
3. 0.966
4. 1.01
5. 1.02
6. 0.82
7. 0.936

Give one value of normalized growth per listed compound.
1. OC[C@H]1O[C@@](CO)(O[C@@H]2O[C@H](CO)[C@@H](O)[C@H](O)[C@H]2O)[C@@H](O[C@@H]2O[C@H](CO)[C@@H](O)[C@H](O)[C@H]2O)[C@@H]1O
2. CC(=O)N[C@@H](Cc1c[nH]c2ccccc12)C(N)=O
3. CN(C)C(=O)Oc1cccc([N+](C)(C)C)c1
4. CS(=O)(=O)c1ccc([C@@H](O)[C@@H](CO)NC(=O)C(Cl)Cl)cc1
5. C/C1=C/CC(C)(C)/C=C/C/C(C)=C/CC1
6. CCCSc1ccc2nc(NC(=O)OC)[nH]c2c1
7. Cc1nc(N)cc(C[n+]2csc(CCO)c2C)n1

# output
[1.02, 1.1, 0.976, 1.04, 1.01, 1.02, 0.946]

Give one value of normalized growth per listed compound.
1. CCOC(=O)NNc1nncc2ccccc12
2. Cc1cc(=O)oc2cc(O)c(O)cc12

# output
1. 1.03
2. 1.04
